Biological target: pure CA11 enzyme from human erythrocyte (Homo sapiens, UniProt P00918)
Construct: pure CA11 enzyme from human erythrocyte; from tissue; host or cells: human erythrocyte
Assay: Carbonic anhydrase activity assay, micromethod of Maren
Type: biochemical
Conditions: concentration that lowers the enzyme activity to half; 0°-4° C.; phenol red endpoint, pH 9.9 to 6.8
Observation Type: pIC50
pIC50 here is simply -log10 of the concentration when that concentration is written in mol/L.

Data request: I'd like to know its pIC50. The compound in question is NS(=O)(=O)c1csc(C(O)c2ccccc2)c1 (stereo not shown) [5-benzhydrol-3-thiophene sulfonamide, 5-(benzhydrol)-3-thiophene sulfonamide]
Data returned: 7.13

Data request: I'd like to know its pIC50. The compound in question is NS(=O)(=O)c1csc(C(=O)c2cccc(C=O)c2)c1
Data returned: 8.14

Data request: I'd like to know its pIC50. The compound in question is CCCCCCC(=O)c1cc(S(N)(=O)=O)cs1 [5-(1-heptanoyl)-3-thiophene sulfonamide]
Data returned: 7.85

Data request: I'd like to know its pIC50. The compound in question is CCC(=O)Oc1ccc(C(=O)c2cc(S(N)(=O)=O)cs2)cc1
Data returned: 8.05

Data request: I'd like to know its pIC50. The compound in question is NS(=O)(=O)c1csc(C(=O)c2ccccc2)c1 [5-benzoyl-3-thiophene sulfonamide]
Data returned: 7.89

Further cases:
Data request: I'd like to know its pIC50. The compound in question is NS(=O)(=O)c1csc(C(=O)c2ccc(C=O)cc2)c1
Data returned: 7.89

Data request: I'd like to know its pIC50. The compound in question is CC(=O)OC(c1ccccc1)c1cc(S(N)(=O)=O)cs1 (stereo not shown)
Data returned: 7.05

Data request: I'd like to know its pIC50. The compound in question is NS(=O)(=O)c1csc(C(O)c2ccc(C=O)cc2)c1 (stereo not shown)
Data returned: 7.74

Data request: I'd like to know its pIC50. The compound in question is NS(=O)(=O)c1csc(C(=O)c2cccc(O)c2)c1
Data returned: 8.17

Data request: I'd like to know its pIC50. The compound in question is CCCCC(=O)c1cc(S(N)(=O)=O)cs1 [5-(1-pentanoyl)-3-thiophene sulfonamide]
Data returned: 7.57

Data request: I'd like to know its pIC50. The compound in question is NS(=O)(=O)c1csc(C(=NO)c2ccccc2)c1 [5-benzoyl-3-thiophene sulfonamide, oxime]
Data returned: 7.28

Data request: I'd like to know its pIC50. The compound in question is COc1ccc(C(=O)c2cc(S(N)(=O)=O)cs2)cc1
Data returned: 7.59

Data request: I'd like to know its pIC50. The compound in question is NS(=O)(=O)c1csc(C(O)c2ccc(CO)cc2)c1 (stereo not shown)
Data returned: 7.39

Data request: I'd like to know its pIC50. The compound in question is CCCCc1ccc(C(=O)c2cc(S(N)(=O)=O)cs2)cc1
Data returned: 8.06

Data request: I'd like to know its pIC50. The compound in question is CCCCCCC(O)c1cc(S(N)(=O)=O)cs1 (stereo not shown)
Data returned: 7.51

---

Target: pure CA11 enzyme from human erythrocyte (Homo sapiens, UniProt P00918)
pIC50: −log10 of the molar value.
Binary classification by pIC50, with 8 as an inclusive lower bound for Satisfied; all other cases are Not satisfied.

Data request: Check if pIC50 >= 8 (inclusive). Item: CC(C)(C)OC(=O)c1ccc(C(=O)c2cc(S(N)(=O)=O)cs2)cc1
Data returned: Satisfied

Data request: Check if pIC50 >= 8 (inclusive). Item: CCCCC(O)c1cc(S(N)(=O)=O)cs1 (stereo not shown)
Data returned: Not satisfied

Kindly consider the entry below.
Data request: Check if pIC50 >= 8 (inclusive). Item: NS(=O)(=O)c1csc(C(O)c2ccccn2)c1 (stereo not shown)
Data returned: Not satisfied

---

Target: pure CA11 enzyme from human erythrocyte (Homo sapiens, UniProt P00918)
IC50 values, listed per item
Reply numerically in µM, unit not repeated.

A selection of reference data follows.
Data request: I'd like to know its IC50. The compound in question is NS(=O)(=O)c1csc(C(=O)c2ccc(O)cc2)c1
Data returned: 0.017

Data request: I'd like to know its IC50. The compound in question is COc1ccc(C(O)c2cc(S(N)(=O)=O)cs2)cc1 (stereo not shown)
Data returned: 0.016

Further cases:
Data request: I'd like to know its IC50. The compound in question is NS(=O)(=O)c1csc(C(=O)c2cccc(F)c2)c1
Data returned: 0.012

Data request: I'd like to know its IC50. The compound in question is CCOC(=O)c1ccc(C(=O)c2cc(S(N)(=O)=O)cs2)cc1
Data returned: 0.006

Reference for the values: patent US5300499A
